assay system: CD38 on Daudi cells (ATCC CCL-213) (human) (UniProt P28907)
assay name: cell-based or functional assay
Bridges are numbered along the chain shown (N, C = ends). Roman numbers before positions name the chains, in order. Where no end group is shown, it is not given here. [ ]: non-standard residue; d: D form. Bip = N[C@@H](Cc1ccc(-c2ccccc2)cc1)C(=O)O; Ahp(2) = CCCCC[C@H](N)C(=O)O
measurement type: EC50 (nM), killing of target cells
Answers are plain numbers, in nM.

I-33 (Cys2-Cys12 disulfide; N-terminus extended by PEG8-; X3 and X11 = Ahp ((S)-2-aminoheptanoic acid), X10 = Bph (4-biphenylylalanine); N-terminal -C(O)CH2- (from 2-bromoacetic acid) thioether-linked to S of Cys13; C-terminus carries PEG8 linker) peptide 1: ARXYHDGVLXXDC peptide 2: DCAWHLGELVWCT: 11
I-40 (disulfide II:3-II:13; also: C-terminal Gly of chain 1 amide-bonded to N-terminal Gly of chain 2 (one chain), thioether at chain A 13 to a chain's N-terminus, The section is headed I-40, its product is called compound 523; also called compound 523) peptide 1: Ac-AR[Ahp(2)]YHDGVL[Bip][Ahp(2)]DCG peptide 2: GDCAWHLGELVWCT-NH2: 1.9
I-27 (not fully specified; Cys2-Cys12 disulfide; N-terminus extended by D-Glu(side chain amide of 12-aminododecanoic acid)-PEG6-; X3 and X11 = Ahp ((S)-2-aminoheptanoic acid), X10 = Bph (4-biphenylylalanine); N-terminal -C(O)CH2- (from 2-bromoacetic acid) thioether-linked to S of Cys13; C-terminus carries PEG10 linker) peptide 1: ARXYHDGVLXXDC peptide 2: DCAWHLGELVWCT: 2.4

We now examine a further binder.
## Input Determine from records and report EC50 (nM), killing of target cells for I-30 (disulfide II:2-II:12; also: thioether at chain A 13 to a chain's N-terminus) peptide 1: AR[Ahp(2)]YHDGVL[Bip][Ahp(2)]DC-{4‑aminobutanoic acid} peptide 2: DCAWHLGELVWCT-NH2
## Output 175
